Read-out: xenobiotic metabolism (CYP1A1), CYP1A1 (gene 1543)
MEASUREMENT_NOTES: CLD_CYP1A1_6hr: CellzDirect (CLD) Gene Expression Assay for xenobiotic metabolism (CYP1A1) at 6 hours (AID 2283661)
Results filed as inconclusive are left out. Calls of active or inactive are those of the source. Rule for the calls: active = hit-call score of the fitted dose curve at least 0.9, where 1 is the maximum; inconclusive = response in the unintended direction; inactive = score below 0.9.
Allowed answers: 1 = active, 0 = inactive

Example cases with answers are listed next.
- CC1(C)C(C=C(Cl)Cl)C1C(=O)OC(C#N)c1ccc(F)c(Oc2ccccc2)c1 (configuration not stated): 1
- O=C(O)COc1ccc(Cl)cc1Cl: 1
- COP(=S)(OC)Oc1ccc(SC)c(C)c1: 1
- CC(C)N(C(=O)COc1nnc(C(F)(F)F)s1)c1ccc(F)cc1: 0
- O=S(=O)(O)C(F)(F)C(F)(F)C(F)(F)C(F)(F)C(F)(F)C(F)(F)C(F)(F)C(F)(F)F: 0

Could you check what this test reported for `COP(=O)(OC)OC=C(Cl)Cl` ?
1

How did this test come out for `OCCOc1ccccc1` ?
0

Per the assay record, what outcome was assigned to `Clc1ccccc1-c1nnc(-c2ccccc2Cl)nn1` ?
0

Test call for this compound, please: `CCS(=O)(=O)c1cccnc1S(=O)(=O)NC(=O)Nc1nc(OC)cc(OC)n1`
0

# fetch the recorded call for CCC(C)(NC(=O)c1cc(Cl)c(C)c(Cl)c1)C(=O)CCl (configuration not stated) here
0

Test call, this compound: `CN1CSC(=S)N(C)C1`
0

Please state the recorded outcome for this compound: CC(C)(C)C(O)/C(=C\c1ccc(Cl)cc1Cl)n1cncn1 (configuration not stated)
1

Hey, just so you know, these numbers are from PubChem BioAssay (EPA / NIEHS).
